So I've got a bunch of molecules here, and I need their pEC50 values.
Tested on: TNFα
PROTOCOL TEXT: cells
Format: cell-based, human
CONDITION DETAILS: Homo sapiens, Monocyte, LPS-stimulated human monocytes, TNFα content; read-out: EC50 TNF
One number for each entry, as −log10 of the molar value.

[[record]]
molecule = "CC(C)(O)[C@H](F)CNC(=O)c1cnc(-c2ccc3cc(C#N)cnn23)cc1NC[C@H]1CCC(=O)N1 [Example 106]"
reported_measurement = 5.86

[[record]]
molecule = "CC(=O)O[C@@H]1CCC[C@H](Nc2cc(-c3ccc4cc(C#N)cnn34)ncc2C(=O)NC[C@@H](F)C(C)(C)O)C1 [Example 501]"
reported_measurement = 7.20

[[record]]
molecule = "C=CC(=O)N[C@H]1CC[C@H](Nc2cc(-c3ccc4cc(C#N)cnn34)ncc2C(=O)NC[C@@H](F)C(C)(C)O)CC1 [Example 425]"
reported_measurement = 6.92


I would be grateful if you could provide pEC50 for each of the following entries.
1. COCCn1cc(Nc2cc(-c3ccc4cc(C#N)cnn34)ncc2C(=O)NC[C@@H](F)C(C)(C)O)cn1 [Example 119]
2. CC(C)Nc1cc(-c2ccc3cc(C#N)cnn23)ncc1C(=O)Nc1cncc(N)c1 [Example 490]
3. CC(C)(O)[C@H](F)CNC(=O)c1cnc(-c2ccc3cc(C#N)cnn23)cc1NC12CCC(N)(CC1)CC2 [Example 318]
4. CC(C)(O)[C@H](F)CNC(=O)c1cnc(-c2ccc3cc(C#N)cnn23)cc1Nc1cnn([C@@H]2CCOC2)c1 [Example 239]

1. 7.49
2. 6.66
3. 7.64
4. 7.62

====

Test system: TNFα
PROTOCOL TEXT: cells
Assay type: cell-based, human
CONDITION DETAILS: Homo sapiens, Monocyte, LPS-stimulated human monocytes, TNFα content; read-out: EC50 TNF
QUANTITY KIND: EC50 (nM)
Give bare numbers, in nM.

[[record]]
molecule = "CC(C)(O)[C@H](F)CNC(=O)c1cnc(-c2ccc3cc(C#N)cnn23)cc1N[C@H]1C[C@H](CN2CCOC2=O)C1 [Example 714]"
quantity_kind = "EC50"
reported_measurement = 35

[[record]]
molecule = "CC(C)(O)[C@H](F)CNC(=O)c1cnc(-c2ccc3cc(C#N)cnn23)cc1NC1CCNC(=O)C1 (stereo partly shown) [Example 327]"
quantity_kind = "EC50"
reported_measurement = 738


I would be grateful if you could provide EC50 for each of the following entries.
1. CC(C)(O)[C@H](F)CNC(=O)c1cnc(-c2ccc3cc(C#N)cnn23)cc1Nc1nc2ccccc2s1 [Example 377]
2. COC(C)(C)CCNC(=O)c1cnc(-c2ccc3cc(C#N)cnn23)cc1NC(C)C [Example 87]
3. CC(C)Nc1cc(-c2ccc3cc(C#N)cnn23)ncc1C(=O)NCCC(O)C(F)(F)F (stereo not shown) [Example 712]
4. CC(C)Nc1cc(-c2ccc3cc(C(N)=O)cnn23)ncc1C(=O)NCC1CS(=O)(=O)C1 [Example 79]

1: 426; 2: 160; 3: 47; 4: 1820

I would be grateful if you could provide EC50 for each of the following entries.
1. COCCNc1cc(-c2ccc3cc(C#N)cnn23)ncc1C(=O)NC[C@@H](F)C(C)(C)O [Example 100]
2. CC(C)Nc1cc(-c2ccc3cc(C#N)cnn23)ncc1C(=O)N[C@H]1CC[C@H](O)C1 [Example 189]
3. CC(C)(O)[C@H](F)CNC(=O)c1cnc(-c2ccc3cc(C#N)cnn23)cc1N[C@H]1CC[C@H](CN)CC1 [Example 558]

195
136
190

I would be grateful if you could provide EC50 for each of the following entries.
1. CC(=O)Nc1ccc(Nc2cc(-c3ccc4cc(C#N)cnn34)ncc2C(=O)NC[C@@H](F)C(C)(C)O)cn1 [Example 662]
2. COC(=O)NC12CC(Nc3cc(-c4ccc5cc(C#N)cnn45)ncc3C(=O)NC[C@@H](F)C(C)(C)O)(C1)C2 [Example 507]
3. CC(=O)NC1CCC(NC(=O)c2cnc(-c3ccc4cc(C#N)cnn34)cc2N[C@H]2CC[C@H](NC(C)=O)CC2)CC1 (stereo partly shown) [Example 301]

1: 12; 2: 27; 3: 1410

I would be grateful if you could provide EC50 for each of the following entries.
1. CC(C)(O)[C@H](F)CNC(=O)c1cnc(-c2ccc3cc(C#N)cnn23)cc1Nc1ccc(C(=O)N2CCC2)cc1 [Example 349]
2. CC(C)(O)[C@H](F)CNC(=O)c1cnc(-c2ccc3cc(C#N)cnn23)cc1Nc1ccc(C#N)nc1 [Example 603]
3. CC(C)(O)[C@H](F)CNC(=O)c1cnc(-c2ccc3cc(C#N)cnn23)cc1NC1CCCCC1 [Example 64]
4. N#Cc1cnn2c(-c3cc(NC45CCC(O)(CC4)CC5)c(C(=O)NCC(=O)N4CC(F)C4)cn3)ccc2c1 [Example 787]
5. CC(C)(O)[C@H](F)CNC(=O)c1cnc(-c2ccc3cc(C#N)cnn23)cc1N[C@H]1CCOC1 [Example 195]
6. COc1cc(Nc2cc(-c3ccc4cc(C#N)cnn34)ncc2C(=O)NC[C@@H](F)C(C)(C)O)ccn1 [Example 598]
7. CC(C)(O)[C@H](F)CNC(=O)c1cnc(-c2ccc3cc(C#N)cnn23)cc1N[C@H]1C[C@H](Cn2ccccc2=O)C1 [Example 729]
8. CNC(=O)c1cnc(-c2ccc3cc(C#N)cnn23)cc1NC12CC(NC(=O)C3CC3)(C1)C2 [Example 480]

1. 77
2. 81
3. 70
4. 79
5. 37
6. 106
7. 58
8. 92

====

So I've got a bunch of molecules here, and I need their IC50 values.
TARGET UNDER TEST: UniProt Q9NWZ3
PROTOCOL TEXT: biochemical
Type: biochemical
CONDITION DETAILS: IRAK4 enzyme, TR-FRET, 500 μM ATP
Give bare numbers, in nM.

Look over these answered cases.
[[record]]
molecule = "CN1CCN(C(=O)CCNC(=O)c2cnc(-c3ccc4cc(C#N)cnn34)cc2NC23CCC(O)(CC2)CC3)CC1"
target_under_test = "UniProt Q9NWZ3"
quantity_kind = "IC50"
units_symbol = "nM"
reported_measurement = 3

[[record]]
molecule = "CC(C)Nc1cc(-c2ccc3cc(C#N)cnn23)ncc1C(=O)NCC1CCS(=O)(=O)C1 (centres unmarked)"
target_under_test = "UniProt Q9NWZ3"
quantity_kind = "IC50"
units_symbol = "nM"
reported_measurement = 3

[[record]]
molecule = "CN(C)C(=O)O[C@H]1C[C@H](Nc2cc(-c3ccc4cc(C#N)cnn34)ncc2C(=O)NC[C@@H](F)C(C)(C)O)C1"
target_under_test = "UniProt Q9NWZ3"
quantity_kind = "IC50"
units_symbol = "nM"
reported_measurement = 1000


I would be grateful if you could provide IC50 for each of the following entries.
1. CC(C)(O)[C@H](F)CNC(=O)c1cnc(-c2ccc3cc(C#N)cnn23)cc1N[C@H]1C[C@@H]2C[C@H]1CN2S(C)(=O)=O
2. CC(=O)N[C@H]1CC[C@@H](Nc2cc(-c3ccc4cc(C#N)cnn34)ncc2C(=O)NC[C@@H](F)C(C)(C)O)C1
3. CC(C)Nc1cc(-c2ccc3cc(C#N)cnn23)ncc1C(=O)NC12CC(C#N)(C1)C2
4. N#Cc1cnn2c(-c3cc(NC45CCC(O)(CC4)CC5)c(C(=O)N[C@H]4CCNC4=O)cn3)ccc2c1

[22, 2, 15, 1]

====

TARGET UNDER TEST: IRAK4 enzyme (Homo sapiens (Human), UniProt Q9NWZ3)
Sequence (Q9NWZ3 whole entry): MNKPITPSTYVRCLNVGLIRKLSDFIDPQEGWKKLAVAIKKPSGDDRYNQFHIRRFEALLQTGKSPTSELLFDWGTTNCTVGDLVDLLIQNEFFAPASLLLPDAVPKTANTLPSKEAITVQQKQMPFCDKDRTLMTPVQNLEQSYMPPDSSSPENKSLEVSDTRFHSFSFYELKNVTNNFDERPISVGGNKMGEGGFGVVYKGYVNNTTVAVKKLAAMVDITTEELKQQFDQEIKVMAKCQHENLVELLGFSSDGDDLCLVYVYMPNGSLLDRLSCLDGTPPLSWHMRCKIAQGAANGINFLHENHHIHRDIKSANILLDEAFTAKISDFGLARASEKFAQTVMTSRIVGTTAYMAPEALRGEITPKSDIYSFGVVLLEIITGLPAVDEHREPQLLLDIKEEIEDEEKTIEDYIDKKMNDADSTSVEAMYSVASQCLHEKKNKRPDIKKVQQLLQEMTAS
PROTOCOL TEXT: biochemical
Type: biochemical
CONDITION DETAILS: IRAK4 enzyme, TR-FRET (HTRF), 500 μM ATP
QUANTITY KIND: pIC50
Give bare numbers, as −log10 of the molar value.

Look over these answered cases.
[[record]]
molecule = "CC(C)(O)[C@H](F)CNC(=O)c1cnc(-c2ccc3cc(C#N)cnn23)cc1NC1C2CC3CC1CC(O)(C3)C2 (stereo partly shown)"
reported_measurement = 8.52

[[record]]
molecule = "CC(C)(O)[C@H](F)CNC(=O)c1cnc(-c2ccc3cc(C#N)cnn23)cc1Nc1ccc(CO)cn1"
reported_measurement = 7.03


Give the value of pIC50 reported for the following: `COC12CCC(Nc3cc(-c4ccc5cc(C#N)cnn45)ncc3C(=O)NC[C@@H](F)C(C)(C)O)(CC1)CC2`
7.92

====

So I've got a bunch of compounds here, and I need their EC50 values.
System: TNFα
PROTOCOL TEXT: cells
Type: cell-based, human
CONDITION DETAILS: Homo sapiens, Monocyte, LPS-stimulated human monocytes, TNFα content; read-out: EC50 TNF
Answers are plain numbers, in nM.

Look over these answered cases.
[[record]]
compound = "CC(C)(O)[C@H](F)CNC(=O)c1cnc(-c2ccc3cc(C#N)cnn23)cc1Nc1cncc(OC(F)F)c1"
quantity_kind = "EC50"
reported_measurement = 63

[[record]]
compound = "CC(C)(O)[C@H](F)CNC(=O)c1cnc(-c2ccc3cc(C#N)cnn23)cc1Nc1nnc(Cc2ccccc2)o1"
quantity_kind = "EC50"
reported_measurement = 522

[[record]]
compound = "CC(C)(O)[C@H](F)CNC(=O)c1cnc(-c2ccc3cc(C#N)cnn23)cc1NC1CCN(S(C)(=O)=O)CC1"
quantity_kind = "EC50"
reported_measurement = 37

[[record]]
compound = "CC(C)(O)[C@H](F)CNC(=O)c1cnc(-c2ccc3cc(C#N)cnn23)cc1NC1C2CNCC1C2 (single isomer, unassigned)"
quantity_kind = "EC50"
reported_measurement = 116

[[record]]
compound = "CC(C)(O)[C@H](F)CNC(=O)c1cnc(-c2ccc3cc(C#N)cnn23)cc1NC1CC2(CC(O)C2)C1 (stereo partly shown)"
quantity_kind = "EC50"
reported_measurement = 26


I would be grateful if you could provide EC50 for each of the following entries.
1. Cc1cn2ccc(Nc3cc(-c4ccc5cc(C#N)cnn45)ncc3C(=O)NC[C@@H](F)C(C)(C)O)cc2n1
2. CNC(=O)c1cnc(-c2ccc3cc(C#N)cnn23)cc1NC12CCC(NC(C)=O)(CC1)C2
3. CC(=O)NC12CC(Nc3cc(-c4ccc5cc(C#N)cnn45)ncc3C(=O)NC[C@@H](F)C(C)(C)F)(C1)C2
4. Cc1nsc(Nc2cc(-c3ccc4cc(C#N)cnn34)ncc2C(=O)NC[C@@H](F)C(C)(C)O)n1

1: 114; 2: 33; 3: 44; 4: 169

I would be grateful if you could provide EC50 for each of the following entries.
1. CC(C)(O)[C@H](F)CNC(=O)c1cnc(-c2ccc3cc(C#N)cnn23)cc1Nc1cnc(N2CCC2)nc1
2. CC(C)(O)[C@H](F)CNC(=O)c1cnc(-c2ccc3cc(C#N)cnn23)cc1N[C@@H]1CCCN(S(C)(=O)=O)C1
3. CC(C)(O)[C@H](F)CNC(=O)c1cnc(-c2ccc3cc(C#N)cnn23)cc1Nc1cnc2cc[nH]c2c1
4. CC(C)(O)[C@H](F)CNC(=O)c1cnc(-c2ccc3cc(C#N)cnn23)cc1N[C@H]1CCC(=O)NC1
5. CNC(=O)c1cnc(-c2ccc3cc(C#N)cnn23)cc1N[C@H]1CC[C@H](NC(=O)OC)CC1

[6, 2020, 27, 2890, 144]

I would be grateful if you could provide EC50 for each of the following entries.
1. CNC(=O)c1csc(Nc2cc(-c3ccc4cc(C#N)cnn34)ncc2C(=O)NC[C@@H](F)C(C)(C)O)n1
2. CC(C)(O)[C@H](F)CNC(=O)c1cnc(-c2ccc3cc(C#N)cnn23)cc1N[C@H]1CC[C@@H](N2CCC(F)(F)C2)CC1
3. CC(C)(O)[C@H](F)CNC(=O)c1cnc(-c2ccc3cc(C#N)cnn23)cc1Nc1cnc(C2CC2)nc1

304
59
30

I would be grateful if you could provide EC50 for each of the following entries.
1. CC(=O)NC12CC(Nc3cc(-c4ccc5cc(C#N)cnn45)ncc3C(=O)NCC(F)F)(C1)C2
2. CC(C)Nc1cc(-c2ccc3cc(C#N)cnn23)ncc1C(=O)NCCC(C)(C)N
3. CC(C)(O)[C@H](F)CNC(=O)c1cnc(-c2ccc3cc(C#N)cnn23)cc1N[C@H]1CC[C@H](NC(=O)OCC2CC2)CC1
4. COc1ccc(Nc2cc(-c3ccc4cc(C#N)cnn34)ncc2C(=O)NC[C@@H](F)C(C)(C)O)nc1
5. CC(C)(O)[C@H](F)CNC(=O)c1cnc(-c2ccc3cc(C#N)cnn23)cc1Nc1ccc2c(c1)OC(F)(F)O2
6. CC(C)C(=O)NCc1ccc(Nc2cc(-c3ccc4cc(C#N)cnn34)ncc2C(=O)NC[C@@H](F)C(C)(C)O)cc1
7. COC(=O)N[C@H]1C[C@@H](CNC(=O)c2cnc(-c3ccc4cc(C#N)cnn34)cc2NC23CCC(O)(CC2)CC3)C1

1. 165
2. 78
3. 147
4. 45
5. 188
6. 44
7. 59

I would be grateful if you could provide EC50 for each of the following entries.
1. CC(C)(O)[C@H](F)CNC(=O)c1cnc(-c2ccc3cc(C#N)cnn23)cc1NC1CCC(=O)NC1 (stereo partly shown)
2. CC(C)(O)[C@H](F)CNC(=O)c1cnc(-c2ccc3cc(C#N)cnn23)cc1Nc1ccc(CN2CC(F)(F)C2)cc1

1. 1560
2. 115
